Recorded Quotient 2 by entry
# Test system: mice
# test.method.notes: Test de la traction (musculotropic properties)
# Type: in vivo
# stated.conditions: ED50 test de la traction / ED50 isolation aggressiveness
measure: Quotient 2

INSERT INTO results (compound, target_or_system, measure, reported_value) VALUES
  ('COCC1CN=C(c2ccccc2F)c2cc(Br)ccc2N1C (centres unmarked)', 'mice', 'Quotient 2', 5.4),
  ('CN1C(=O)CN=C(c2ccccc2)c2cc(Cl)ccc21 [Standard II, reference compound]', 'mice', 'Quotient 2', 1.2),
  ('COCC1CN=C(c2ccccc2Cl)c2cc(Cl)ccc2N1C (centres unmarked) [Standard I, reference compound]', 'mice', 'Quotient 2', 2.4),
  ('CCOCC1CN=C(c2ccccc2Cl)c2cc(Br)ccc2N1C (centres unmarked)', 'mice', 'Quotient 2', 8.5),
  ('COCC1CN=C(c2ccccc2Cl)c2cc(Br)ccc2N1C (centres unmarked)', 'mice', 'Quotient 2', 28.1);
